Data origin, for the record: patent US10059741B2

Measured CC50 of individual entries
test: in vitro
assay.context: dog, CC50, run with Influenza A H3N2 Perth/16/2006 (so in the source); Visual
Bridge positions count the residues as written; N and C are the ends. Square brackets hold non-standard residues; d marks the D form. Peptide text beside a SMILES is read from it. R8 = C=CCCCCCC[C@@](C)(N)C(=O)O; S5 = C=CCCC[C@](C)(N)C(=O)O; Nle = CCCC[C@H](N)C(=O)O
result.type: CC50

INSERT INTO assay_data (compound, observed_measurement) VALUES
  ('CCCC[C@H](NC(C)=O)C(=O)N[C@@H](CC(=O)O)C(=O)N[C@H](C(=O)N[C@@H](CC(N)=O)C(=O)N[C@]1(C)CCCCCCC=CCCC[C@@](C)(C(=O)N[C@@H](CCC(N)=O)C(=O)N[C@@H](C)C(=O)N[C@@H](CCC(N)=O)C(=O)N[C@@H](C)C(=O)N[C@@H](C)C(N)=O)NC(=O)[C@H](C)NC(=O)[C@H](CC(C)C)NC(=O)[C@H](Cc2ccccc2)NC(=O)[C@H](CC(C)C)NC(=O)[C@H](CC(C)C)NC(=O)[C@H]([C@@H](C)O)NC1=O)C(C)C [SP-26] (Ac-[Nle]DVN[R8]TLLFLA[S5]QAQAA-NH2; staple 5-12)', '> 100 µM'),
  ('CCCC[C@H](NC(C)=O)C(=O)N[C@@H](CC(=O)O)C(=O)N[C@H](C(=O)N[C@@H](CC(N)=O)C(=O)N[C@]1(C)CCCCCCC=CCCC[C@@](C)(C(=O)N[C@@H](C)C(=O)N[C@@H](C)C(=O)N[C@@H](CCC(N)=O)C(=O)N[C@@H](C)C(=O)N[C@@H](C)C(N)=O)NC(=O)[C@H](C)NC(=O)[C@H](CC(C)C)NC(=O)[C@H](Cc2ccccc2)NC(=O)[C@H](CC(C)C)NC(=O)[C@H](CC(C)C)NC(=O)[C@H]([C@@H](C)O)NC1=O)C(C)C [SP-24] (Ac-[Nle]DVN[R8]TLLFLA[S5]AAQAA-NH2; staple 5-12)', '> 100 µM');

* * *

test: in vitro
assay.context: dog, CC50, run with Influenza A H1N1 California/07/2009; Neutral Red
Bridge positions count the residues as written; N and C are the ends. Square brackets hold non-standard residues; d marks the D form. Peptide text beside a SMILES is read from it. R8 = C=CCCCCCC[C@@](C)(N)C(=O)O; S5 = C=CCCC[C@](C)(N)C(=O)O; Nle = CCCC[C@H](N)C(=O)O; Aib = CC(C)(N)C(=O)O
result.type: CC50

INSERT INTO assay_data (compound, result_type, observed_measurement) VALUES
  ('CCCC[C@H](NC(C)=O)C(=O)N[C@@H](CC(=O)O)C(=O)N[C@H](C(=O)N[C@@H](CC(N)=O)C(=O)N[C@]1(C)CCCCCCC=CCCC[C@@](C)(C(=O)N[C@@H](C)C(=O)N[C@@H](C)C(=O)N[C@@H](CCC(N)=O)C(N)=O)NC(=O)[C@H](C)NC(=O)[C@H](CC(C)C)NC(=O)[C@H](Cc2ccccc2)NC(=O)[C@H](CC(C)C)NC(=O)[C@H](CC(C)C)NC(=O)[C@H]([C@@H](C)O)NC1=O)C(C)C [SP-18] (Ac-[Nle]DVN[R8]TLLFLA[S5]AAQ-NH2; staple 5-12)', 'CC50', '> 100 µM'),
  ('CCCC[C@H](NC(C)=O)C(=O)N[C@@H](CC(=O)O)C(=O)N[C@H](C(=O)N[C@@H](CC(N)=O)C(=O)N[C@@]1(C)CCCC=CCCC[C@@](C)(C(=O)N[C@@H](CC(C)C)C(=O)N[C@@H](C)C(=O)N[C@H](C(=O)N[C@@H](CCC(N)=O)C(=O)NC(C)(C)C(=O)N[C@@H](C)C(=O)N[C@@H](C)C(=O)N[C@@H](C)C(N)=O)C(C)C)NC(=O)[C@H](CC(C)C)NC(=O)[C@H](CC(C)C)NC(=O)[C@H]([C@@H](C)O)NC1=O)C(C)C [SP-21] (Ac-[Nle]DVN[S5]TLL[S5]LAVQ[Aib]AAA-NH2; staple 5-9)', 'CC50', '> 100 µM'),
  ('CCCC[C@H](NC(C)=O)C(=O)N[C@@H](CC(=O)O)C(=O)N[C@H](C(=O)N[C@@H](CC(N)=O)C(=O)N[C@]1(C)CCCCCCC=CCCC[C@@](C)(C(=O)N[C@@H](CCC(N)=O)C(=O)N[C@@H](C)C(=O)N[C@@H](CCC(N)=O)C(=O)N[C@@H](C)C(=O)N[C@@H](C)C(N)=O)NC(=O)[C@H](C)NC(=O)[C@H](CC(C)C)NC(=O)[C@H](Cc2ccccc2)NC(=O)[C@H](CC(C)C)NC(=O)[C@H](CC(C)C)NC(=O)[C@H]([C@@H](C)O)NC1=O)C(C)C [SP-26] (Ac-[Nle]DVN[R8]TLLFLA[S5]QAQAA-NH2; staple 5-12)', 'CC50', '> 100 µM'),
  ('CCCC[C@H](NC(C)=O)C(=O)N[C@@H](CC(=O)O)C(=O)N[C@H](C(=O)N[C@@H](CC(N)=O)C(=O)N[C@@]1(C)CCCC=CCCC[C@@](C)(C(=O)N[C@@H](CC(C)C)C(=O)N[C@@H](C)C(=O)N[C@H](C(=O)N[C@@H](CCC(N)=O)C(=O)NC(C)(C)C(=O)N[C@@H](CCC(N)=O)C(=O)N[C@@H](C)C(=O)N[C@@H](C)C(N)=O)C(C)C)NC(=O)[C@H](CC(C)C)NC(=O)[C@H](CC(C)C)NC(=O)[C@H]([C@@H](C)O)NC1=O)C(C)C [SP-19] (Ac-[Nle]DVN[S5]TLL[S5]LAVQ[Aib]QAA-NH2; staple 5-9)', 'CC50', '> 100 µM');

* * *

test: in vitro
assay.context: dog, CC50, MDCK cells; run with Influenza A H3N2 Perth/16/2009; Neutral Red
Bridge positions count the residues as written; N and C are the ends. Square brackets hold non-standard residues; d marks the D form. Peptide text beside a SMILES is read from it. R8 = C=CCCCCCC[C@@](C)(N)C(=O)O; S5 = C=CCCC[C@](C)(N)C(=O)O; Nle = CCCC[C@H](N)C(=O)O; Aib = CC(C)(N)C(=O)O
Parameter CC50: see the listing below.
result.type: CC50

INSERT INTO measurements (molecule, observed_measurement) VALUES
  ('CCCC[C@H](NC(C)=O)C(=O)N[C@@H](CC(=O)O)C(=O)N[C@H](C(=O)N[C@@H](CC(N)=O)C(=O)N[C@]1(C)CCCCCCC=CCCC[C@@](C)(C(=O)N[C@@H](C)C(=O)N[C@@H](C)C(=O)N[C@@H](CCC(N)=O)C(N)=O)NC(=O)[C@H](C)NC(=O)[C@H](CC(C)C)NC(=O)[C@H](Cc2ccccc2)NC(=O)[C@H](CC(C)C)NC(=O)[C@H](CC(C)C)NC(=O)[C@H]([C@@H](C)O)NC1=O)C(C)C [SP-18] (Ac-[Nle]DVN[R8]TLLFLA[S5]AAQ-NH2; staple 5-12)', '> 100 µM'),
  ('CCCC[C@H](NC(C)=O)C(=O)N[C@@H](CC(=O)O)C(=O)N[C@H](C(=O)N[C@@H](CC(N)=O)C(=O)N[C@@]1(C)CCCC=CCCC[C@@](C)(C(=O)N[C@@H](CC(C)C)C(=O)N[C@@H](C)C(=O)N[C@H](C(=O)NC(C)(C)C(=O)N[C@@H](C)C(=O)N[C@@H](CCC(N)=O)C(N)=O)C(C)C)NC(=O)[C@H](CC(C)C)NC(=O)[C@H](CC(C)C)NC(=O)[C@H]([C@@H](C)O)NC1=O)C(C)C [SP-6] (Ac-[Nle]DVN[S5]TLL[S5]LAV[Aib]AQ-NH2; staple 5-9)', '> 100 µM');

* * *

Examples of compounds with documented EC50 follow.
Test system: H7N9 A/Anhui/1/2013
test: microbe, parasite or virus in culture
Assay type: cell-based, influenza A virus
assay.context: read-out: EC50
Bridge positions count the residues as written; N and C are the ends. Square brackets hold non-standard residues; d marks the D form. Peptide text beside a SMILES is read from it. R8 = C=CCCCCCC[C@@](C)(N)C(=O)O; S5 = C=CCCC[C@](C)(N)C(=O)O; Nle = CCCC[C@H](N)C(=O)O; Aib = CC(C)(N)C(=O)O
result.type: EC50

INSERT INTO assay_data (compound, observed_measurement) VALUES
  ('CCCC[C@H](NC(C)=O)C(=O)N[C@@H](CC(=O)O)C(=O)N[C@H](C(=O)N[C@@H](CC(N)=O)C(=O)N[C@]1(C)CCCCCCC=CCCC[C@@](C)(C(=O)N[C@@H](CCC(N)=O)C(=O)N[C@@H](C)C(=O)N[C@@H](C)C(=O)N[C@@H](C)C(=O)N[C@@H](C)C(N)=O)NC(=O)[C@H](C)NC(=O)[C@H](CC(C)C)NC(=O)[C@H](Cc2ccccc2)NC(=O)[C@H](CC(C)C)NC(=O)[C@H](CC(C)C)NC(=O)[C@H]([C@@H](C)O)NC1=O)C(C)C [SP-27] (Ac-[Nle]DVN[R8]TLLFLA[S5]QAAAA-NH2; staple 5-12)', '9.6 µM'),
  ('CCCC[C@H](NC(C)=O)C(=O)N[C@@H](CC(=O)O)C(=O)N[C@H](C(=O)N[C@@H](CC(N)=O)C(=O)N[C@]1(C)CCCCCCC=CCCC[C@@](C)(C(=O)N[C@@H](C)C(=O)N[C@@H](C)C(=O)N[C@@H](C)C(=O)N[C@@H](C)C(=O)N[C@@H](C)C(N)=O)NC(=O)[C@H](C)NC(=O)[C@H](CC(C)C)NC(=O)[C@H](Cc2ccccc2)NC(=O)[C@H](CC(C)C)NC(=O)[C@H](CC(C)C)NC(=O)[C@H]([C@@H](C)O)NC1=O)C(C)C [SP-25] (Ac-[Nle]DVN[R8]TLLFLA[S5]AAAAA-NH2; staple 5-12)', '33 µM'),
  ('CCCC[C@H](NC(C)=O)C(=O)N[C@@H](CC(=O)O)C(=O)N[C@H](C(=O)N[C@@H](CC(N)=O)C(=O)N[C@@]1(C)CCCC=CCCC[C@@](C)(C(=O)N[C@@H](CC(C)C)C(=O)N[C@@H](CCCCN)C(=O)N[C@H](C(=O)NC(C)(C)C(=O)N[C@@H](C)C(=O)N[C@@H](CCC(N)=O)C(N)=O)C(C)C)NC(=O)[C@H](CC(C)C)NC(=O)[C@H](CC(C)C)NC(=O)[C@H]([C@@H](C)O)NC1=O)C(C)C [AP1, Ac-NleDVN$TLL$LKVAibAQ-NH2] (Ac-[Nle]DVN[S5]TLL[S5]LKV[Aib]AQ-NH2; staple 5-9)', '> 100 µM');
